Test system: 435261-313-R-J1-PDC tumor spheroid viability;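 further: spheroids exposed to compounds for 7 days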
Test: Anticancer human tumor 435261-313-R-J1-PDC patient-derived colon adenocarcinoma cell line growth inhibition [PI3K]
Details: second compound 0.316 µM; first compound 10 µM; active compounds read low; spheroids with HUVEC and MSC
The compounds listed here are annotated with their viability, T/C.
Write the value in % as a bare number.

See these solved cases before continuing.
| compound | unit.abbrev | viability, T/C |
| --- | --- | --- |
| C[C@@H](NC(=O)c1ncnc(N)c1Cl)c1ncc(C(=O)Nc2cc(C(F)(F)F)c(Cl)cn2)s1 + CC(Nc1ncnc2nc[nH]c12)c1cc2cccc(Cl)c2c(=O)n1-c1ccccc1 | % | 64.8 |
| C[C@@H](NC(=O)c1ncnc(N)c1Cl)c1ncc(C(=O)Nc2cc(C(F)(F)F)c(Cl)cn2)s1 + CC(Nc1ccc2c(c1)OCCn1cc(N3C(=O)OCC3C(F)F)nc1-2)C(N)=O | % | 9.29 |
| Cn1ncc(Cl)c1-c1cc(C(=O)NC(CN)Cc2cccc(F)c2)sc1Cl (stereo unspecified) + CC(Nc1ncnc2nc[nH]c12)c1cc2cccc(Cl)c2c(=O)n1-c1ccccc1 | % | 10.6 |
| Cn1nccc1Nc1nccc(-c2ccn(C(CO)c3ccc(Cl)c(F)c3)c(=O)c2)n1 (stereo unspecified) + CC(Nc1ncnc2nc[nH]c12)c1cc2cccc(Cl)c2c(=O)n1-c1ccccc1 | % | 19.5 |
| CC(C)NCC(C(=O)N1CCN(c2ncnc3c2C(C)CC3O)CC1)c1ccc(Cl)cc1 (stereo unspecified) + COc1c(OCCCN2CCOCC2)ccc2c3n(c(=NC(=O)c4cnc(N)nc4)nc12)CCN3 | % | 3.75 |

Input: Hello, I am looking for reported viability, T/C with 435261-313-R-J1-PDC tumor spheroid viability for CC(Cn1ccc(-c2ccc(C#N)c(Cl)c2)n1)NC(=O)c1cc(C(C)O)[nH]n1 (stereo unspecified) + CC(Nc1ccc2c(c1)OCCn1cc(N3C(=O)OCC3C(F)F)nc1-2)C(N)=O . Could you help?
Output: 27.5

Provenance of the data: PubChem BioAssay AID1963976
